target: Signal transducer and activator of transcription 1-alpha/beta (Homo sapiens); test: Inhibition of STAT1 (unknown origin) expressed in IFN-gamma induced human HeLa cells at 50 uM incubated for 1 hr by luciferase reporter gene assay; type: cell-based
Answer each item with its documented inhibition.
Field: value (include unit after the number)

# return recorded inhibition for entry CCCCCCOc1cc(COc2c(Cl)cc(CNc3nn[nH]n3)cc2OC)ccc1[N+](=O)[O-]
59.3%

Give a short answer stating reported inhibition for COc1cc(CNc2nn[nH]n2)cc(Cl)c1OCc1ccc(C#N)cc1 .
13.2%

Supply reported inhibition belonging to this compound: COc1cc(CNc2nn[nH]n2)cc(Cl)c1OCc1cccc(C(=O)O)c1
10%

Supply recorded inhibition for COc1cc(CNc2nn[nH]n2)cc(Br)c1OCc1ccc(C)cc1 here.
11.8%

====

molecular target: Signal transducer and activator of transcription 1-alpha/beta (Homo sapiens) (UniProt P42224); experiment: Inhibition of STAT1 (unknown origin) expressed in IFN-gamma induced human HeLa cells at 50 uM incubated for 1 hr by luciferase reporter gene assay; assay type: cell-based
Sequence (P42224 whole entry): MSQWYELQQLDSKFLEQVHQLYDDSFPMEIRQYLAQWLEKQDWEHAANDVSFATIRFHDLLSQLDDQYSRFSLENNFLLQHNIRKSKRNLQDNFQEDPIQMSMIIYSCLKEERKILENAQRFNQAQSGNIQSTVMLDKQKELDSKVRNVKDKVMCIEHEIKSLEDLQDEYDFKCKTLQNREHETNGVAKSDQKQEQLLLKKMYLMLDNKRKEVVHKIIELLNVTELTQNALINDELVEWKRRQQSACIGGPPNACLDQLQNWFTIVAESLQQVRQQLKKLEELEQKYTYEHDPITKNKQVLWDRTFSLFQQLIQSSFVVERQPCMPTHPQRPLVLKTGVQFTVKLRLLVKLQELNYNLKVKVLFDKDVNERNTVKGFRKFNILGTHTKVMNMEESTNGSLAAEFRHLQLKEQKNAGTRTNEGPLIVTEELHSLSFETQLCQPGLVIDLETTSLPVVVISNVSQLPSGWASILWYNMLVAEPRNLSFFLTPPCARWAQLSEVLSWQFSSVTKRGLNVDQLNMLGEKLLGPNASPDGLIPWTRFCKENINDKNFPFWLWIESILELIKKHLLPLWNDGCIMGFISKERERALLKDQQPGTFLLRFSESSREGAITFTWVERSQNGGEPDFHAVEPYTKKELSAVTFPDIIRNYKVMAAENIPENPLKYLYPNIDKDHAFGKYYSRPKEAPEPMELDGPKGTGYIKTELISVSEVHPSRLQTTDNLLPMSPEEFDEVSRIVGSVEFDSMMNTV
Could you label it True if measured inhibition is 0.6% or higher, and False otherwise?

Test whether the molecule COc1cc(CNc2nn[nH]n2)cc(Cl)c1OCc1ccc(-n2nc(C)cc2C)cc1 records inhibition of 0.6% or higher.
True

Does inhibition meet or surpass 0.6% for COc1cc(CNc2nn[nH]n2)cc(Cl)c1OCc1cccc(COc2ccccc2)c1 ?
False

Quick check, inhibition >= 0.6%? Oc1cc(CNc2nn[nH]n2)cc(Cl)c1OCc1ccccc1
True

In plain terms: is recorded inhibition at least 0.6% for COc1cc(C=O)cc(Cl)c1OCc1ccc([N+](=O)[O-])cc1 ?
True

Quick check, inhibition >= 0.6%? COc1cc(CNc2nn[nH]n2)cc(Cl)c1OCc1ccccc1[N+](=O)[O-]
True

Is inhibition at least 0.6%? Consider COc1cc(CNc2nn[nH]n2)cc(Cl)c1OCc1ccc(-c2csc(C)n2)cc1
False

Record COc1cc(CCc2nn[nH]n2)cc(Cl)c1OCc1ccc(C)cc1 ; criterion: inhibition no lower than 0.6%. Met?
False

Textbook exercise: given the entry COc1cc(CNc2nn[nH]n2)cc(I)c1OCc1ccc([N+](=O)[O-])cc1 , state whether its inhibition is greater than or equal to 0.6%.
False

Quick check, inhibition >= 0.6%? COc1cc(CNc2nn[nH]n2)cc(Cl)c1OCc1ccc(OC2CCOCC2)cc1
False

In plain terms: is recorded inhibition at least 0.6% for COc1cc(CNc2nn[nH]n2)cc(Br)c1OCc1ccc([N+](=O)[O-])cc1 ?
False

Would you say COc1cc(CNc2nn[nH]n2)cc(Cl)c1OCc1cccc([N+](=O)[O-])c1 shows inhibition at minimum 0.6%?
True

Check this molecule for inhibition at or above 0.6%: COc1cc(CNc2nn[nH]n2)cc(Cl)c1OCc1ccc(C(C)(C)C)cc1
False

Decide: is the reported value of inhibition for COc1cc(CNc2nn[nH]n2)cc(Cl)c1OCc1ccc(C)cc1 equal to or greater than 0.6%?
True

Say whether COc1cc(CNCC(=O)O)cc(Cl)c1OCc1ccc([N+](=O)[O-])cc1 shows inhibition of 0.6% or more.
True

Threshold query (inhibition >= 0.6%) on COc1ccc([N+](=O)[O-])cc1COc1c(Cl)cc(CNc2nn[nH]n2)cc1OC
False

Reported inhibition reaches at least 0.6% for COc1cc(CNc2nn[nH]n2)ccc1OCc1ccc(C)cc1 ?
False

Test whether the molecule COc1cc(C=O)cc(Cl)c1OCc1ccc(C)cc1 records inhibition of 0.6% or higher.
True

Please tell me: is the molecule COc1cc(CNc2nn[nH]n2)cc(Cl)c1OCc1cccc(-c2ccccc2)c1 at or over 0.6% in terms of inhibition?
False

Does inhibition meet or surpass 0.6% for COc1cc(CNc2nn[nH]n2)cc(Cl)c1OC(C)c1ccccc1 (configuration not stated) ?
False

# bool: inhibition of COc1cc(CNc2nn[nH]n2)cc(Cl)c1OCc1ccc(-c2nccs2)cc1 >= 0.6%
False

Entry COc1cc(CNc2nn[nH]n2)cc(Cl)c1OCc1ccc(C(N)=O)cc1 : is its inhibition no less than 0.6%?
True

====

molecular target: Signal transducer and activator of transcription 3 (Homo sapiens, UniProt P40763); assay: Inhibition of STAT3 (unknown origin) expressed in Oncostatin M induced human HeLa cells at 50 uM incubated for 1 hr by luciferase reporter gene assay; assay type: cell-based
Sequence (P40763 whole entry): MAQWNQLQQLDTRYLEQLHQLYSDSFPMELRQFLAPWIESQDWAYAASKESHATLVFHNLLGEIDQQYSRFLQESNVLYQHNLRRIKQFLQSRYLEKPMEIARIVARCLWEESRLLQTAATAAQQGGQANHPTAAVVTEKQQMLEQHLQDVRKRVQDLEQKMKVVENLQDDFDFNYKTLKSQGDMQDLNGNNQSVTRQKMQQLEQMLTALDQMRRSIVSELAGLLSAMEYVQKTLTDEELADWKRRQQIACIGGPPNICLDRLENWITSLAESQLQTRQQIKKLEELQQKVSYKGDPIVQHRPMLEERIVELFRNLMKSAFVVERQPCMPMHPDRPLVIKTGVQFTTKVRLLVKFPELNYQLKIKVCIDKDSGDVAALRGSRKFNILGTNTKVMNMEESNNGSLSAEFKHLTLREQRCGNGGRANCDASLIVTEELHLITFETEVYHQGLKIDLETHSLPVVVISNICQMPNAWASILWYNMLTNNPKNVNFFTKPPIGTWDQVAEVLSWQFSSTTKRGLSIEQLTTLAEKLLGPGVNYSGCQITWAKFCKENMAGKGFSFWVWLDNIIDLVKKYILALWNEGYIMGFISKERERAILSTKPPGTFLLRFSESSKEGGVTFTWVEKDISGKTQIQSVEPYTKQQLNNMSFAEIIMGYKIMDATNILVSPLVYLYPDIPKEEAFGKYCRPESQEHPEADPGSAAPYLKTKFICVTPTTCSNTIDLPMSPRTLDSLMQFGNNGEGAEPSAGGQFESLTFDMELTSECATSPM
Activity calls are given as the source filed them. No cut-off for these calls is given here.
test readout: inhibition

molecule | inhibition
CC1CCc2c(sc3ncn(Cc4ccc(C(=O)O)cc4)c(=O)c23)C1 (centres undefined) | Active
COc1cc(CNc2nn[nH]n2)cc(Cl)c1OCc1cccc(COc2ccccc2)c1 | 0.7%
Oc1cc(CNc2nn[nH]n2)cc(Cl)c1OCc1ccccc1 | 30.8%
Brc1cc2c(cc1COc1ccc(-c3nn[nH]n3)cc1)OCO2 | Active
O=[N+]([O-])c1ccc(COc2c(O)cc(CNc3nn[nH]n3)cc2Cl)cc1 | 25.3%
COc1cc(CNc2nn[nH]n2)cc(Cl)c1OCc1ccc(-c2csc(C)n2)cc1 | 0%
COc1cc(CNc2nn[nH]n2)cc(Cl)c1OCc1ccc(OC(F)(F)F)cc1 | 51.1%
CC(C)COC(=O)CN1C(=O)S/C(=C\c2ccc(C(=O)O)cc2)C1=O | Active

For the next question, use this molecule.
Output measured inhibition for this item: CCCCCCCCCOc1cc(COc2c(Cl)cc(CNc3nn[nH]n3)cc2OC)ccc1[N+](=O)[O-]
82.7%
